test: AUC (0 to t) in male ICR mouse at 10 mg/kg, po measured after 24 hrs by LC-MS/MS analysis; format: ADME, organism-based; conditions: in vivo
ENDPOINT: AUC(0-t) at 24 h (ng·h/mL)
Answers are plain numbers, in ng·h/mL.

Q: Which value of AUC(0-t) at 24 h has been reported for CC(C)NCC(C(=O)N1CCN(c2ncnc3[nH]nc(Br)c23)CC1)c1ccc(Br)cc1 (stereo unspecified) in the records?
Result: 830

====

I'd be grateful if you could share measured IC50 for these entries.
test system: PC-3; assay: cells; settings: Homo sapiens, PC-3, 72 h
Description: Antiproliferative activity against human PC-3 cells assessed as inhibition of cell proliferation incubated for 72 hrs by MTT assay

Would you please look over these solved cases?
Q: Recorded IC50 for Cc1c[nH]c2ncnc(N3CCN(C(=O)C(CNC(C)C)c4ccc(Br)cc4)CC3)c12 (stereo not drawn) with PC-3, please?
Result: 15.8 µM

Q: Try this compound next: CNc1nc(N2CCN(C(=O)C(CNC(C)C)c3ccc(Br)cc3)CC2)c2cc[nH]c2n1 (stereo not drawn)
Result: 8.7 µM

For each entry beneath this line, provide reported IC50.
1. Cc1c[nH]c2ncnc(N3CCN(C(=O)C(CNC(C)C)c4ccc(Cl)cc4Cl)CC3)c12 (stereo not drawn)
2. CC(C)NCC(C(=O)N1CCN(c2ncnc3[nH]nc(Cl)c23)CC1)c1ccc(Cl)cc1Cl (stereo not drawn)

Result:
1. 22 µM
2. 3.5 µM

====

assay: AUC (0 to infinity) in male ICR mouse at 1 mg/kg, iv measured after 24 hrs by LC-MS/MS analysis; assay type: ADME, organism-based; details: in vivo
ENDPOINT: AUC(0-inf)
A complete answer gives the number followed by the unit.

Q: Data request, read-out AUC(0-inf), for CC(C)NCC(C(=O)N1CCN(c2ncnc3[nH]nc(Br)c23)CC1)c1ccc(Br)cc1 (stereo unspecified)
Result: 214 ng·h/mL

====

test: AUC (0 to t) in male ICR mouse at 1 mg/kg, iv measured after 24 hrs by LC-MS/MS analysis; format: ADME, organism-based; conditions: in vivo
ENDPOINT: AUC(0-t) at 24 h (ng·h/mL)
Answers are plain numbers, in ng·h/mL.

Q: Given CC(C)NCC(C(=O)N1CCN(c2ncnc3[nH]nc(Br)c23)CC1)c1ccc(Br)cc1 (stereo unspecified) , state its recorded AUC(0-t) at 24 h.
Result: 202

====

assay: Tmax in male ICR mouse at 10 mg/kg, po measured after 24 hrs by LC-MS/MS analysis; format: ADME, organism-based; details: in vivo
ENDPOINT: Tmax (min)
Numbers only, in min.

Q: # lookup: Tmax of CC(C)NCC(C(=O)N1CCN(c2ncnc3[nH]nc(Br)c23)CC1)c1ccc(Br)cc1 (stereo unspecified)
Result: 30

====

test: Oral bioavailability in male ICR mouse at 10 mg/kg measured after 24 hrs by LC-MS/MS analysis; format: ADME, organism-based; details: in vivo
ENDPOINT: bioavailability

Q: Fill in the blank: the reported bioavailability of CC(C)NCC(C(=O)N1CCN(c2ncnc3[nH]nc(Br)c23)CC1)c1ccc(Br)cc1 (stereo unspecified) is ____.
Result: 41%

====

assay: AUC (0 to infinity) in male ICR mouse at 10 mg/kg, po measured after 24 hrs by LC-MS/MS analysis; assay type: ADME, organism-based; details: in vivo
ENDPOINT: AUC(0-inf) (ng·h/mL)
Answers are plain numbers, in ng·h/mL.

Q: GET /values?readout=AUC(0-inf)&item= CC(C)NCC(C(=O)N1CCN(c2ncnc3[nH]nc(Br)c23)CC1)c1ccc(Br)cc1 (stereo unspecified)
Result: 876
